Where these numbers come from: patent US20230027072A1

assay-remarks: Phase 1 clinical study, pharmacokinetics (Example 39)
Assay type: in vivo
measurement-parameters: human, plasma, oral; 40 mg daily (MTD for QD regimen), Day 15; read-out: AUCtau, mean (CV %)
quantity-name: AUC (ng·h/mL)
Lab book: enter the figure in ng·h/mL, no units written.

-- ask Would you kindly share the measured AUC for Cc1cnc(NC2CCOCC2)nc1-n1cnc(C(=O)N[C@H](CN)c2cc(F)cc(Cl)c2)c1 [Example 349] ?
-- reply 492

====

assay-remarks: Phase 1 clinical study, pharmacokinetics (Example 39)
Format: in vivo
measurement-parameters: human, plasma, oral; 40 mg daily (MTD for QD regimen), Day 15; read-out: Cmax, mean (CV %)
Source text: This human clinical study is designed to determine the maximum tolerated dose of the compound of Example 349 [S)—N-(2-Amino-1-(3-chloro-5-fluorophenyl)ethyl)-1-(5-methyl-2-((tetrahydro-2H-pyran-4-yl)amino)pyrimidin-4-yl)-1H-imidazole-4-carboxamide mandelic acid salt] and evaluate its safety, tolerability, pharmacokinetics and pharmacodynamics. […]
quantity-name: Cmax (ng/mL)
Lab book: enter the figure in ng/mL, no units written.

-- ask Would you kindly share the measured Cmax for Cc1cnc(NC2CCOCC2)nc1-n1cnc(C(=O)N[C@H](CN)c2cc(F)cc(Cl)c2)c1 [Example 349] ?
-- reply 61.5

====

assay-remarks: Phase 1 clinical study, pharmacokinetics (Example 39)
Format: in vivo
measurement-parameters: human, plasma, oral; 250 mg weekly (MTD for QW regimen), Day 15; read-out: Cmax, mean (CV %)
quantity-name: Cmax

-- ask Would you kindly share the measured Cmax for `Cc1cnc(NC2CCOCC2)nc1-n1cnc(C(=O)N[C@H](CN)c2cc(F)cc(Cl)c2)c1` ?
-- reply 495 ng/mL

====

assayed-system: ERK1 (Homo sapiens)
Sequence (P27361 whole entry): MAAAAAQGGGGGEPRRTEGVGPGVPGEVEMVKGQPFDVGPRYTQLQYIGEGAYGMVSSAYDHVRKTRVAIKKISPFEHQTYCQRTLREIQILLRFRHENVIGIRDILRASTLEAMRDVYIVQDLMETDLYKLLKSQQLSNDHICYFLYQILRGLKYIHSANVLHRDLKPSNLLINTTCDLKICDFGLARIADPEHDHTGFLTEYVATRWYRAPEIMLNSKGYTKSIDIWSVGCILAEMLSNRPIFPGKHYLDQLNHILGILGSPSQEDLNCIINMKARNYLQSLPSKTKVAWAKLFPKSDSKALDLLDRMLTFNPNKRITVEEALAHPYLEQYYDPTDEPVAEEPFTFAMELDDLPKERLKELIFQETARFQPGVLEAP
quantity-name: IC50

-- ask Look up IC50 with ERK1 (Homo sapiens) for this compound: `Cc1cnc(N[C@H]2CCOC2)nc1-n1cnc(C(=O)N[C@H](CN)c2cc(F)cc(Cl)c2)c1`
-- reply ≤ 50 nM
